# Test system: 616215-338-R-J1-PDC tumor spheroids, viability
# assay overview: Anticancer human tumor 616215-338-R-J1-PDC patient-derived colon adenocarcinoma cell line growth inhibition [GQUAD]
# reported conditions: curve of first compound; second compound 3.16 µM; spheroids with HUVEC and MSC
pIC50: −log10 of the molar value.
recorded endpoint: pIC50

C=CC(=O)N1CCN(c2nc(=O)n(-c3c(C)ccnc3C(C)C)c3nc(-c4c(O)cccc4F)c(F)cc23)C(C)C1 (centres undefined) + Cc1[nH]c2ccc(F)cc2c1-c1nc2c3cccnc3c3ncccc3c2[nH]1    < 5.00
Nc1ccn(C2OC(CO)C(O)C2(F)F)c(=O)n1 (centres undefined) + CN(C)c1ccc(Nc2c3ccc(NC(=O)CCN4CCCC4)cc3nc3cc(NC(=O)CCN4CCCC4)ccc23)cc1    > 7.50
CC1COCCN1c1cc(C2(O)CC3CCC(C2)O3)c2cnn(-c3ccn[nH]3)c2n1 (centres undefined) + Cc1cnc(CNC(=O)c2c(=O)c3ccc(N4CCCN(C)CC4)nc3n3c2sc2ccccc23)cn1    > 7.50

Proceeding to the next molecule to report its pIC50.
Check the records and state pIC50 for CC(=O)O[C@H]1C(=O)[C@@]2(C)[C@H]([C@H](OC(=O)c3ccccc3)[C@]3(O)C[C@H](OC(=O)[C@H](O)[C@@H](NC(=O)c4ccccc4)c4ccccc4)C(C)=C1C3(C)C)[C@]1(OC(C)=O)CO[C@@H]1C[C@@H]2O + Cc1[nH]c2ccc(F)cc2c1-c1nc2c3cccnc3c3ncccc3c2[nH]1 > 7.50

###

# Tested on: 616215-338-R-J1-PDC tumor spheroids, viability
# assay overview: Anticancer human tumor 616215-338-R-J1-PDC cell line growth inhibition [GQUAD];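 further: spheroids exposed to agents for 7 days before readout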;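 on viability, T/C: percent viability relative to DMSO vehicle control wells taken as 100%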
# reported conditions: second compound 1 µM; first compound 0.00316 µM; stronger effect = lower value; spheroids with HUVEC and MSC
Field: viability, T/C. Provide a value for each of the molecules that follow.
Answers are plain numbers, in %.

Look at each molecule and report its viability, T/C.
1. Cn1ncnc1[C@H]1c2n[nH]c(=O)c3cc(F)cc(c23)N[C@@H]1c1ccc(F)cc1 + CN(C)c1ccc(Nc2c3ccc(NC(=O)CCN4CCCC4)cc3nc3cc(NC(=O)CCN4CCCC4)ccc23)cc1
2. CCc1c2c(nc3ccc(O)cc13)-c1cc3c(c(=O)n1C2)COC(=O)[C@]3(O)CC + CN(C)c1ccc(Nc2c3ccc(NC(=O)CCN4CCCC4)cc3nc3cc(NC(=O)CCN4CCCC4)ccc23)cc1
3. Cc1[nH]c2ccccc2c1CCNCc1ccc(/C=C/C(=O)NO)cc1 + Cc1[nH]c2ccc(F)cc2c1-c1nc2c3cccnc3c3ncccc3c2[nH]1
4. Cc1[nH]c2ccccc2c1CCNCc1ccc(/C=C/C(=O)NO)cc1 + CN(C)c1ccc(Nc2c3ccc(NC(=O)CCN4CCCC4)cc3nc3cc(NC(=O)CCN4CCCC4)ccc23)cc1
5. CCc1c2c(nc3ccc(O)cc13)-c1cc3c(c(=O)n1C2)COC(=O)[C@]3(O)CC + Cc1[nH]c2ccc(F)cc2c1-c1nc2c3cccnc3c3ncccc3c2[nH]1

[91.9, 94.3, 98.5, 93.8, 76.8]

###

# Test system: 616215-338-R-J1-PDC tumor spheroids, viability
# assay overview: Anticancer human tumor 616215-338-R-J1-PDC cell line growth inhibition [GQUAD];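 further: spheroids exposed to agents for 7 days before readout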
# reported conditions: curve of first compound; second compound 0.0316 µM; spheroids with HUVEC and MSC
I'd be grateful if you could share measured pIC50 for these entries.
Answers are plain numbers, as −log10 of the molar value.

C#Cc1c(F)ccc2cc(O)cc(-c3ncc4c(N5CC6CCC(C5)N6)nc(OCC56CCCN5CC(F)C6)nc4c3F)c12 (stereo not given) + Cc1cnc(CNC(=O)c2c(=O)c3ccc(N4CCCN(C)CC4)nc3n3c2sc2ccccc23)cn1    5.35
CC[C@@]1(O)C(=O)OCc2c1cc1n(c2=O)Cc2cc3c(CN(C)C)c(O)ccc3nc2-1 + Cc1[nH]c2ccc(F)cc2c1-c1nc2c3cccnc3c3ncccc3c2[nH]1    6.52
CCCS(=O)(=O)Nc1ccc(F)c(C(=O)c2c[nH]c3ncc(-c4ccc(Cl)cc4)cc23)c1F + Cc1[nH]c2ccc(F)cc2c1-c1nc2c3cccnc3c3ncccc3c2[nH]1    5.26
Cc1[nH]c2ccccc2c1CCNCc1ccc(/C=C/C(=O)NO)cc1 + Cc1cnc(CNC(=O)c2c(=O)c3ccc(N4CCCN(C)CC4)nc3n3c2sc2ccccc23)cn1    7.08
O=C(NO)c1cnc(N2CCN(S(=O)(=O)c3ccc4ccccc4c3)CC2)nc1 + Cc1[nH]c2ccc(F)cc2c1-c1nc2c3cccnc3c3ncccc3c2[nH]1    6.39
CC1COCCN1c1cc(-c2ccnn2C)c2ccnc(-c3ccn[nH]3)c2n1 (stereo not given) + Cc1[nH]c2ccc(F)cc2c1-c1nc2c3cccnc3c3ncccc3c2[nH]1    6.65

// switching to the query compound
Give the measured pIC50 for CCc1c2c(nc3ccc(O)cc13)-c1cc3c(c(=O)n1C2)COC(=O)[C@]3(O)CC + Cc1[nH]c2ccc(F)cc2c1-c1nc2c3cccnc3c3ncccc3c2[nH]1 7.78
